test: BSK_3C_TissueFactor: BioMAP Diversity Plus: 3C Assay for Tissue Factor Biomarker Activity (AID 2282997); details: BioMAP 3C HUVEC, tissue factor biomarker readout; actives raise or lower the signal
Calls of active or inactive are those of the source. Rule for the calls: active = hit-call score of the fitted dose curve at least 0.9, where 1 is the maximum; inactive = score below 0.9.
Classes used: y for active, n for inactive

{"columns": ["compound", "group"],
 "data": [
  ["COC(=O)CCC(=O)OC", "n"],
  ["Oc1ccc(O)cc1", "n"],
  ["CCN(CC)CCOc1ccc(C(=C(Cl)c2ccccc2)c2ccccc2)cc1", "y"],
  ["CCCC[C@H]1CN(CC2CCOCC2)C(=O)OC12CCN(C1(C)CCN(C(=O)c3c(C)ncnc3C)CC1)CC2", "n"],
  ["CCCCC(CC)CO (stereo unspecified)", "n"],
  ["C=CCCCCCCCCCCCC", "n"],
  ["CN(C)CCCN(C)CCCN(C)C", "n"],
  ["NC1CCCCC1", "n"],
  ["CN(C)C(=O)NC1(c2ccccc2)CCN(CC[C@@]2(c3ccc(F)c(F)c3)CN(C(=O)c3ccccc3)CCO2)CC1", "n"],
  ["COC(=O)CCCC(=O)OC", "n"],
  ["CCCCCCC(C=O)=Cc1ccccc1", "y"]
]}

---

read-out: Cyclin Dependent Kinase Inhibitor 1A (CDKN1A), CDKN1A (gene 1026); assay: LTEA_HepaRG_CDKN1A: Life Technologies and Expression Analysis (LTEA) Assay for Cyclin Dependent Kinase Inhibitor 1A (CDKN1A) using HepaRG (AID 2283450); details: mRNA level, 48 h; actives raise or lower the signal
Calls of active or inactive are those of the source. The calls were made as follows: active = hit-call score of the fitted dose curve at least 0.9, where 1 is the maximum; inactive = score below 0.9.
Classes used: t (active), f (inactive)

{"columns": ["compound", "group"],
 "data": [
  ["CCOCCOCCO", "f"],
  ["COc1ccc(OC(F)(F)F)cc1CN[C@H]1CCCN[C@H]1c1ccccc1", "t"],
  ["O=C(N[C@@H](c1ccccc1)[C@@H]1CCCCN1)c1cccc(C(F)(F)F)c1Cl", "f"],
  ["CCCCC(CC)COC(=O)CCCCCCCC(=O)OCC(CC)CCCC (stereo unspecified)", "f"],
  ["C=CCc1ccc(OC)c(OC)c1", "f"],
  ["CC(C)c1cccc(C(C)C)c1", "f"]
]}

---

read-out: X-box binding protein 1 (XBP1), XBP1 (gene 7494); assay: LTEA_HepaRG_XBP1: Life Technologies and Expression Analysis (LTEA) Assay for X-box binding protein 1 (XBP1) using HepaRG (AID 2283540); conditions: mRNA level, 48 h; actives raise or lower the signal
Activity calls are given as the source filed them. The calls were made as follows: active = hit-call score of the fitted dose curve at least 0.9, where 1 is the maximum; inactive = score below 0.9.
Classes used: active, inactive

{"columns": ["molecule", "group"],
 "data": [
  ["CS(=O)(=O)c1ccc([C@@H](C[C@H]2CCC(=O)C2)C(=O)Nc2cnccn2)cc1Cl", "active"],
  ["CCCCCCCC(=O)OC", "inactive"],
  ["CCC(C)N(C)C(=O)c1cc2ccccc2c(-c2ccccc2Cl)n1 (centres undefined)", "inactive"],
  ["CC(C)(C)c1ccccc1", "inactive"]
]}

---

read-out: Paternally Expressed 10 (PEG10), PEG10 (gene 23089); assay: LTEA_HepaRG_PEG10: Life Technologies and Expression Analysis (LTEA) Assay for Paternally Expressed 10 (PEG10) using HepaRG (AID 2283520); conditions: mRNA level, 48 h; actives raise or lower the signal
The source made the active and inactive calls. Rule for the calls: active = hit-call score of the fitted dose curve at least 0.9, where 1 is the maximum; inactive = score below 0.9.
Classes used: 1 (active), 0 (inactive)

{"columns": ["compound", "group"],
 "data": [
  ["CC(=O)OCC(COC(C)=O)OC(C)=O", 0],
  ["Oc1ccc(O)cc1", 0],
  ["CC(=O)CC(c1ccccc1)c1c(O)c2ccccc2oc1=O (stereo not drawn)", 0],
  ["CCCCc1nc2cccnc2n1Cc1ccc(-c2ccccc2-c2nnn[nH]2)cc1", 1],
  ["OCC(O)CO", 0],
  ["Cc1ccc(C(C)(C)C)c(O)c1", 0],
  ["CC(C)c1cccc(C(C)C)c1NC(=O)NS(=O)(=O)c1cc(C(C)(C)O)co1", 0],
  ["COC(=O)CCCC(=O)OC", 0],
  ["CCc1cc(C2=C(C(=O)O)N(c3ccccc3C(F)(F)F)S(=O)(=O)c3ccccc32)cc2c1OCO2", 1],
  ["N[C@@H](Cc1c[nH]c2ccccc12)C(=O)O", 0],
  ["CC(=O)[C@@]1(O)CC[C@H]2[C@@H]3CCC4=CC(=O)CC[C@]4(C)[C@H]3CC[C@@]21C", 1],
  ["CC(C)(C)c1ccccc1", 0],
  ["C/C=C/C=C/C(=O)O", 0],
  ["CCOCCOCCO", 0],
  ["O=C1CCCCC1", 0],
  ["O=C1c2c(O)cccc2Cc2cccc(O)c21", 0],
  ["C/C=C/c1ccc(OC)cc1", 0],
  ["CCCCC(CC)COC(=O)CCCCCCCC(=O)OCC(CC)CCCC (stereo not drawn)", 0]
]}
